The reported numbers originate from ChEMBL document CHEMBL1201862.

Test system: NCI-H23
Test Protocol: NCI tumour cell line growth inhibition, 48 h
The source made the active and inactive calls. Cut-off read from the data, not from the text of the source: active = GI50 up to about 1.1 µM and inactive = higher.
Metric: GI50

[[record]]
compound = "CO/N=C(\\C(=O)O/C(=N/C1CCCCC1)NC1CCCCC1)c1csc(NC(c2ccccc2)(c2ccccc2)c2ccccc2)n1"
metric = "GI50"
reported_value = "> 10 µM (inactive)"

[[record]]
compound = "COc1cc([C@@H]2c3cc4c(cc3C[C@@H]3COC(=O)C32)OCO4)cc(OC)c1O (stereo partly drawn)"
metric = "GI50"
reported_value = "0.21 µM (active)"


State recorded GI50 for all listed compounds.
1. O=[N+]([O-])c1ccc(-c2ccc(-c3csc(Nc4ccccc4)n3)o2)cc1
2. Cc1ccccc1OC(C)C(=O)NN1C(=O)CC(=O)N(c2ccccc2)C1=S (stereo not drawn)
3. C/C1=C/C[C@@H](/C(C)=C/c2csc(C)n2)OC(=O)C[C@H](O)C(C)(C)C(=O)[C@H](C)[C@@H](O)[C@@H](C)CCC1 [EPOTHILONE D]
4. Cc1cc(S(=O)(=O)Nc2nc(N)nc(N(C)C)n2)c(SCC(=O)O)cc1Cl

**A:**
1. 20.2 µM (inactive)
2. 88.1 µM (inactive)
3. < 0.0001 µM (active)
4. > 10 µM (inactive)

State recorded GI50 for all listed compounds.
1. COc1ccc2c(c1)NC1(O)c3ccccc3C(=O)C21O (stereo not drawn)
2. CC(=O)O[C@H]1[C@@H](N2CCN(C)CC2)C[C@H]2[C@@H]3CC=C4C[C@@H](N5CCCC5)CC[C@]4(C)[C@H]3CC[C@@]21C

**A:**
> 100 µM (inactive)
> 100 µM (inactive)

* * *

Tested on: CAKI-1
Test Protocol: NCI tumour cell line growth inhibition, 48 h
Activity calls are given as the source filed them. Rule as the data show it: active = GI50 up to about 1.1 µM and inactive = higher.
Outcome (select one): y for active, n for inactive

[[record]]
compound = "O=c1[nH]nc(Cc2ccc(Cl)cc2)n1/N=C/c1c[nH]c2ccccc12"
subject_of_test = "CAKI-1"
class_name = "n"


**Q:** Which outcome was assigned to c1ccc(N2CCN(CCN3CCc4c([nH]c5ccccc45)C3c3cccnc3)CC2)cc1 (stereo not drawn) in this test?
**A:** n

**Q:** Which outcome was assigned to CCCC(O)[C@@]1(CC)CC(C)C(O)(C2(C)C[C@H](C)[C@@H](C(CC)C(=O)C(C)[C@@H](O)[C@H](C)C3OC(O)(C(CC)C(=O)O)[C@@H](C)C(O)C3CC)O2)O1 (stereo partly drawn) in this test?
**A:** y

**Q:** Which outcome was assigned to CCN(CC)CCC(=O)O[C@H]1CC[C@H](CC(C)[C@H]2CC(=O)C(C)C=C(C)[C@H](OC(=O)CCN(CC)CC)C(OC)C(=O)[C@@H](C)CC(C)/C=C/C=C/C=C(C)C(OC)CC3CC[C@H](C)[C@](O)(O3)C(=O)C(=O)N3CCCCC3C(=O)O2)CC1OC (stereo partly drawn) in this test?
**A:** y

**Q:** Which outcome was assigned to S=C1Nc2cnc3ccccc3c2SC1c1ccccc1 (stereo not drawn) in this test?
**A:** n

**Q:** Which outcome was assigned to "CCCCCC/C=C/C#CCCCCCCCC(=O)O" in this test?
**A:** n

**Q:** Which outcome was assigned to "O=C1/C(=C\c2ccc([N+](=O)[O-])cc2)Sc2scc(-c3ccc(O)c(O)c3)[n+]21" in this test?
**A:** n

* * *

Test system: CAKI-1
Test Protocol: NCI tumour cell line growth inhibition, 48 h
Activity calls are given as the source filed them. Cut-off read from the data, not from the text of the source: active = GI50 up to about 1.1 µM and inactive = higher.
Outcome (select one): yes for active, no for inactive

[[record]]
chemical_string = "Cc1ccc(S(=O)(=O)N/N=C/C(=C/c2ccc(Cl)cc2)CC(/C=N/NS(=O)(=O)c2ccc(C)cc2)=C\\c2ccc(Cl)cc2)cc1"
class_name = "no"

[[record]]
chemical_string = "CC(CC(=O)O)(CC(=O)O)C(=O)O"
class_name = "no"


**Q:** Which outcome was assigned to "CN(C)CCCN1c2ccccc2C(C)(C)c2ccccc21" in this test?
**A:** no

**Q:** Which outcome was assigned to "CCOC(=O)/C(=C\c1cccs1)P(=O)(OCC)OCC" in this test?
**A:** no

**Q:** Which outcome was assigned to "Cc1cc(C)nc(NS(=O)(=O)c2ccc(NC(=O)c3cccc4c(Nc5ccc(S(N)(=O)=O)cc5)c5ccccc5nc34)cc2)n1" in this test?
**A:** no

**Q:** Which outcome was assigned to "O=C1COCCN1C(=O)c1ccccc1Cl" in this test?
**A:** no

**Q:** Which outcome was assigned to "CS(=O)(=O)NNS(=O)(=O)c1ccc(Cl)cc1" in this test?
**A:** no

* * *

Tested on: HCC 2998
Test Protocol: NCI tumour cell line growth inhibition, 48 h
The source made the active and inactive calls. No stated cut-off is given here; in the data, active = GI50 up to about 1.1 µM and inactive = higher.
Outcome (select one): class 1 = active, class 0 = inactive

Below, 2 compounds whose answers are already recorded.
[[record]]
compound = "CC(=O)O[C@H]1C(=O)[C@@]2(C)[C@H]([C@H](OC(=O)c3ccccc3)[C@]3(O)C[C@H](OC(=O)[C@H](O)[C@@H](NC(=O)c4ccoc4)c4ccccc4)C(C)=C1C3(C)C)[C@]1(OC(C)=O)CO[C@@H]1C[C@@H]2O"
subject_of_test = "HCC 2998"
class_name = "class 1"

[[record]]
compound = "CC(C)(C)OC(=O)NCCc1ccc(N)cc1"
subject_of_test = "HCC 2998"
class_name = "class 0"


**Q:** Which outcome was assigned to O=C(O)Cc1cccc2c1OC(c1ccccc1)C(Cl)(C(=O)c1ccccc1)C2=O (centres undefined) in this test?
**A:** class 0

**Q:** Which outcome was assigned to O=C(O)c1c2c(cc3c1CC(Cc1ccccc1)C3=O)CCC2 (centres undefined) in this test?
**A:** class 0

**Q:** Which outcome was assigned to "CCn1nc2c3c(ncn3C(C)(C)O2)c1=O" in this test?
**A:** class 0

* * *

Tested on: CAKI-1
Test Protocol: NCI tumour cell line growth inhibition, 48 h
The source made the active and inactive calls. Cut-off read from the data, not from the text of the source: active = GI50 up to about 1.1 µM and inactive = higher. Non-standard residues stand in square brackets, D forms with d. Residues, ends and D or L forms follow the SMILES beside them. *: point of attachment. Ac5c = NC1(C(=O)O)CCCC1; Boc = CC(C)(C)OC(=O)*; tBu = CC(C)(C)*
For each entry below, report its GI50 value.

[[record]]
molecule = "CC(=O)OCC(=O)[C@@]1(O)CC[C@H]2[C@@H]3CCC4=CC(=O)[C@H](C)C[C@]4(C)[C@H]3[C@@H](O)C[C@@]21C"
subject_of_test = "CAKI-1"
metric = "GI50"
reported_value = "> 100 µM (inactive)"


State recorded GI50 for all listed molecules.
1. CC#N.O[C@@H]1CCCC[C@@H]1O.O[C@@H]1CCCC[C@@H]1O.[TeH2]
2. NC(=S)Nc1ccc(S(=O)(=O)Nc2ccc(S(N)(=O)=O)cc2)cc1

**A:**
1: > 100 µM (inactive); 2: > 100 µM (inactive)

State recorded GI50 for all listed molecules.
1. CCOC(=O)Cc1nnc2n(-c3ccccc3)c(=O)c3ccccc3n12
2. O/N=N/c1cnccn1
3. CC(OC(C)(C)C)C1NC(=O)C(CCCCNC(=O)OC(C)(C)C)NC(=O)C(Cc2c[nH]c3ccccc23)NC(=O)C(Cc2ccccc2)NC(=O)C2(CCCC2)NC(=O)C(Cc2ccccc2)NC1=O (stereo not drawn) (cyclo([Ac5c]FWK(Boc)T(tBu)F); configuration not given here)

**A:**
1. 20.2 µM (inactive)
2. 975 µM (inactive)
3. 42.9 µM (inactive)

State recorded GI50 for all listed molecules.
1. Cn1c2ccccc2c(=NNc2cccc(C(=O)O)c2)c2ccccc21
2. CN1C/C(=C\c2ccc(C(=O)O)cc2)C(=O)/C(=C/c2ccc(C(=O)O)cc2)C1

**A:**
25.1 µM (inactive)
> 100 µM (inactive)

* * *

Test system: SK-MEL-28
Test Protocol: NCI tumour cell line growth inhibition, 48 h
Active and inactive are the calls of the source. Rule as the data show it: active = GI50 up to about 1.1 µM and inactive = higher.
Metric: GI50

In the examples that follow, each entry is paired with its recorded GI50.
[[record]]
compound = "COc1cc2cc(C(=O)N3CC(COS(C)(=O)=O)c4ccc(NC(=O)OCc5ccccc5)cc43)[nH]c2c(OC)c1OC (stereo unspecified)"
reported_value = "> 100 µM (inactive)"

[[record]]
compound = "CC(=O)C(CN(C)C)C(c1ccccc1)c1c(O)c2ccccc2oc1=O (stereo unspecified)"
reported_value = "> 100 µM (inactive)"

[[record]]
compound = "CC1(C)OC(=O)C(C#N)=C1/C=C/c1coc2ccc(Cl)cc2c1=O"
reported_value = "47.5 µM (inactive)"


State recorded GI50 for all listed compounds.
1. CN(C)CC1(Cc2ccccc2)CC/C(=C\c2ccccc2)C1=O (stereo unspecified)
2. O=C(CC(=O)c1ccccc1)CC(O)(c1ccccc1)c1ccccc1
3. CC(=O)N1NC(c2ccccc2)=CC(=O)/C1=C/C(=O)c1ccccc1

**A:**
["> 100 µM (inactive)", "13.1 µM (inactive)", "> 100 µM (inactive)"]
